Tested on: stearoyl-CoA desaturase (SCD) (Rattus norvegicus)
Construct: The microsomes were quickly thawed and added to assay buffer so that a concentration of 0.4 mg/ml was achieved; from tissue
Test method notes: SCD assay with rat liver microsomes ([3H]stearoyl CoA, adapted from Talamo and Bloch)
Type: biochemical
Condition set: Table 2 (Example 21, procedures of Example 20); rat liver microsomes, [3H]stearoyl CoA substrate
Measure name: IC50 (nM)

// solved cases for IC50 follow
O=C(CO)Nc1ccc2ncn(Cc3ccc(F)c(F)c3)c(=O)c2c1 [compound 2]: 2400
O=C(Nc1ccc2ncn(Cc3cccc(C(F)(F)F)c3)c(=O)c2c1)OCc1ccccc1 [compound 40]: 1400
Cc1ccccc1OCCCn1cnc2ccc(NC(=O)OCc3ccccc3)cc2c1=O [compound 52]: 44
C[C@H](c1ccc(Cl)c(Cl)c1)n1cnc2cc(NC(=O)CO)ccc2c1=O [compound 36]: 58
CCC(c1ccc(Cl)c(Cl)c1)n1cnc2ccc(NC(=O)COC(C)=O)cc2c1=O (centres unmarked) [compound 25]: 500

a: O=C(CO)Nc1ccc2ncn(CCOc3cc(Cl)ccc3Cl)c(=O)c2c1 [compound 42]
b: O=C(CCO)Nc1ccc2ncn(Cc3ccc(Cl)c(Cl)c3)c(=O)c2c1 [compound 95]
In: Returns: the argument ( a or b ) having the larger IC50. Select an item and report its label.
Out: b

====

Tested on: stearoyl-CoA desaturase (SCD) (Rattus norvegicus, UniProt P07308)
Construct: The microsomes were quickly thawed and added to assay buffer so that a concentration of 0.4 mg/ml was achieved; from tissue
Sequence (P07308 whole entry): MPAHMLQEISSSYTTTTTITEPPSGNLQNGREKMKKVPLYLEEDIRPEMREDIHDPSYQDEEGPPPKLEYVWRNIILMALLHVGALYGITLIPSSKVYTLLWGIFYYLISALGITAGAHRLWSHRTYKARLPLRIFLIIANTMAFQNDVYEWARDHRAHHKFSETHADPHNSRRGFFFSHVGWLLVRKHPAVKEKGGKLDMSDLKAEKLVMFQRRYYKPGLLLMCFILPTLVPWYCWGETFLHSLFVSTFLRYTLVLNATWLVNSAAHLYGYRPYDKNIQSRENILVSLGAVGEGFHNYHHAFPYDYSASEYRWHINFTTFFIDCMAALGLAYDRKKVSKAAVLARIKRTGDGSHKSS
Test method notes: SCD assay with rat liver microsomes ([3H]stearoyl CoA, adapted from Talamo and Bloch)
Assay type: biochemical
Condition set: Table 2 (Example 21, procedures of Example 20); rat liver microsomes, [3H]stearoyl CoA substrate
Measure name: IC50 (nM)

Below, 5 compounds whose answers are already recorded.
COCCNC(=O)c1ccc2ncn(Cc3ccc(Cl)c(Cl)c3)c(=O)c2c1: 1500
O=C(Nc1cnc2ncn(Cc3ccc(Cl)c(Cl)c3)c(=O)c2c1)OCc1ccccc1: 360
O=C(CO)Nc1ccc2ncn(Cc3ccc(Cl)c(C(F)(F)F)c3)c(=O)c2c1: 190
CC(=O)OCC(=O)Nc1ccc2ncn(Cc3ccc(Cl)c(C(F)(F)F)c3)c(=O)c2c1: 130
O=C(CO)Nc1ccc2ncn(CCCCCOc3cc(Cl)ccc3Cl)c(=O)c2c1: 1300

a: O=C(NCCOc1ccccc1)c1ccc2c(=O)n(Cc3ccc(Cl)c(Cl)c3)cnc2c1
b: O=C(CO)Nc1cnc2ncn(Cc3ccc(Cl)c(Cl)c3)c(=O)c2c1
c: O=C(NCCCO)c1ccc2c(=O)n(Cc3ccc(Cl)c(Cl)c3)cnc2c1
d: O=C(CO)Nc1ccc2ncn(CCCOc3cc(C(F)(F)F)ccc3Cl)c(=O)c2c1
e: O=C(CO)Nc1ccc2ncn(CCCOc3ccccc3)c(=O)c2c1
In: Endpoint returns the given compounds ordered by ascending IC50. Present the labels in the sequence the task asks for.
Out: b, a, c, d, e

A: O=C(C[C@H](O)c1ccccc1)Nc1ccc2ncn(Cc3ccc(Cl)c(Cl)c3)c(=O)c2c1
B: O=C(NCCO)c1ccc2c(=O)n(Cc3ccc(Cl)c(Cl)c3)cnc2c1
C: O=C(CO)Nc1ccc2ncn(CCCNS(=O)(=O)c3ccccc3C(F)(F)F)c(=O)c2c1
D: Cc1ccccc1OCC(O)Cn1cnc2ccc(NC(=O)CO)cc2c1=O (stereo not drawn)
In: Hey, quick one: sort these by IC50, largest value first please. Show the ranking through the labels, in the order asked for.
Out: C, D, A, B
(C: 14000 nM, D: 4000 nM, A: 1800 nM, B: 630 nM)

P: O=C(CO)Nc1cnc2ncn(Cc3ccc(Cl)cc3)c(=O)c2c1
Q: O=C(Nc1ccc2ncn(CCCOc3ccccc3F)c(=O)c2c1)OCc1ccccc1
In: Return label of the item with the larger IC50. Candidates: P , Q . Answer format: the label of the selected item.
Out: P

P: O=C(CO)Nc1ccc2ncn(CCCc3ccccc3)c(=O)c2c1
Q: CC(=O)OCC(=O)Nc1ccc2ncn(Cc3ccc(F)c(C(F)(F)F)c3)c(=O)c2c1
In: Larger number for IC50: P , or Q ? Kindly give the label for the entry you pick.
Out: P
(P: 4500 nM, Q: 700 nM)
